tested on: SUDHL10; experiment: Induction of cytotoxicity (CellTiter-Glo, 5 h), SUDHL10; conditions: Homo sapiens, SU-DHL10, 5 h, read-out: Cytotox SUDHL10 [M] (median), SUDHL10 cells, cytotoxicity induction, CellTiter-Glo, 5 h, median
QUANTITY: IC50

MOLECULE | TESTED_ON | IC50
Cc1c2c(nn1C)COCCCCn1c(C(=O)O)c(CCOc3ccc4ccccc4c3)c3cccc-2c31 (racemic) [Example 357] | SUDHL10 | > 3.3e-05 M
CN1CCN(Cc2c3c(nn2C)COC/C=C\Cn2c(C(=O)O)c(CCCOc4cccc5ccccc45)c4cccc-3c42)CC1 (racemic) [Example 358] | SUDHL10 | > 3.3e-05 M
Cn1nc(COC(=O)NCC(F)(F)F)c2c1COCCCCn1c(C(=O)O)c(CCCOc3cccc4ccccc34)c3cccc-2c31 (single isomer, unassigned; enantiomer 1) [Example 343] | SUDHL10 | > 3.3e-05 M
Cc1c2c(nn1C)COCCCCn1c(C(=O)O)c(CCc3cccc4ccccc34)c3cccc-2c31 (racemic) [Example 354] | SUDHL10 | > 3.3e-05 M

// moving on: another record for IC50
(Q) Record lookup: for SUDHL10, what IC50 belongs to Cc1ccc2c(CCCOc3cccc4cc(F)ccc34)c(C(=O)O)n3c2c1-c1c(nn(CCN2CCOCC2)c1C)COCCCC3 (racemic) [Example 292] ?
(A) 1.52e-06 M

====

test system: SUDHL5; experiment: Anti-proliferative effect (CellTiter-Glo, 72 h), SUDHL5; type: cell-based; conditions: Homo sapiens, SU-DHL-5, 72 h, SUDHL5 cells, antiproliferation, 72 h incubation, median, read-out: Antiproli SUDHL5 [M] (median)
QUANTITY: IC50 (M)

COMPOUND | QUANTITY | MEAS_VALUE
COc1ccccc1-c1ncc(OCc2nn(C)c3c2-c2cccc4c(CCCOc5cccc6ccccc56)c(C(=O)O)n(c24)CCCN(C)C3)cn1 (single isomer, unassigned) | IC50 | 2.48e-06

I. COCC(=O)N1CCN(c2ccc(OCc3nn(C)c4c3-c3cccc5c(CCCOc6cccc7ccccc67)c(C(=O)O)n(c35)CCCCOC4)cc2)CC1 (single isomer, unassigned; enantiomer 2) [Example 1-29]
II. Cc1nn(C)c2c1-c1cccc3c(CCCOc4cccc5cc(Cl)ccc45)c(C(=O)O)n(c13)CCCCOC2 (racemic) [Example 040]
(Q) Select one. Lower IC50: I or II Respond with the label that goes with your answer.
(A) I

====

test system: SUDHL5; test: Induction of cytotoxicity (CellTiter-Glo, 5 h), SUDHL5; settings: read-out: Cytotox SUDHL5 [M] (median); SUDHL5 cells, cytotoxicity induction, CellTiter-Glo, 5 h incubation, median
Listing: IC50 of selected molecules
Expressed in M, but write only the number.

MOLECULE | QUANTITY | OUTPUT_UNIT | MEAS_VALUE
CN1CCCn2c(C(=O)O)c(CCCOc3cccc4ccccc34)c3cccc(c32)-c2c(nn(C)c2COc2ccc(N3CCN(S(=O)(=O)N(C)C)CC3)cc2)C1 (single isomer, unassigned; enantiomer 2) [Example 1-113] | IC50 | M | 1.31e-05

(Q) Record lookup: for SUDHL5, what IC50 belongs to CCCc1nn(C)c2c1-c1c(C)ccc3c(CCCOc4cccc5ccccc45)c(C(=O)O)n(c13)CCCN(C)C2 (single isomer, unassigned; enantiomer 2) [Example 197] ?
(A) 1.93e-05

(Q) Record lookup: for SUDHL5, what IC50 belongs to CCc1c2c(nn1CCN1CCOCC1)COCCCCn1c(C(=O)O)c(CCCOc3cccc4ccccc34)c3ccc(C)c-2c31 (single isomer, unassigned; enantiomer 1) [Example 205] ?
(A) 1.38e-06

(Q) Record lookup: for SUDHL5, what IC50 belongs to Cc1ccc2c(C(C)CCOc3cccc4cc(F)ccc34)c(C(=O)O)n3c2c1-c1c(nn(C)c1C)COCCCC3 (single isomer, unassigned) [Example 279] ?
(A) 2.05e-05
